# target_entity: K18PL tau (Homo sapiens, UniProt P10636, P618L)
# Construct: (K18PL; amino acids 244-369); made in house
# Sequence (P10636 561-686 P618L): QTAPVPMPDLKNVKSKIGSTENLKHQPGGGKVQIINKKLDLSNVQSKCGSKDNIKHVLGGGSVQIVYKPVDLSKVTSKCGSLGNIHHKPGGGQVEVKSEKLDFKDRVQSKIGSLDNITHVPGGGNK
# protocol_text: Heparin-induced K18PL tau fibrillization assay monitored by ThT fluorescence
# Type: biochemical
# condition_details: Table 4; logarithm of IC50, K18PL tau ThT fluorescence inhibition; read-out: Tau ThT Assay Log IC50 (converted)

{"substance_smiles": "CCOC(=O)c1nn(-c2cccc(C)c2)c(=O)c2c(N)scc12", "units_of_measure": "nM", "IC50": 1260}
{"substance_smiles": "CCOC(=O)c1nn(-c2ccccc2Cl)c(=O)c2c(N)scc12", "units_of_measure": "nM", "IC50": 5010}
{"substance_smiles": "CCN(CC)C(=O)c1nn(-c2ccc(OC)cc2)c(=O)c2c(N)scc12", "units_of_measure": "nM", "IC50": 7940}
{"substance_smiles": "Nc1scc2c(C(=O)O)nn(-c3ccc(OC(F)(F)F)cc3)c(=O)c12", "units_of_measure": "nM", "IC50": 6310}
{"substance_smiles": "CCOC(=O)c1nn(-c2ccc(N=[N+]=[N-])cc2)c(=O)c2c(N)scc12", "units_of_measure": "nM", "IC50": 6310}
{"substance_smiles": "CCOC(=O)c1nn(-c2ccccc2Br)c(=O)c2c(N)scc12", "units_of_measure": "nM", "IC50": 6310}
{"substance_smiles": "CCOC(=O)c1nn(-c2ccccc2C)c(=O)c2c(N)scc12", "units_of_measure": "nM", "IC50": 1260}
{"substance_smiles": "CCOC(=O)c1nn(-c2ccc(C(F)(F)F)cc2)c(=O)c2c(N)scc12", "units_of_measure": "nM", "IC50": 10000}
{"substance_smiles": "CCOC(=O)c1nn(-c2ccc(OC(F)(F)F)cc2)c(=O)c2c(N)scc12", "units_of_measure": "nM", "IC50": 2000}
{"substance_smiles": "CCOC(=O)c1nn(-c2ccc(I)cc2)c(=O)c2c(N)scc12", "units_of_measure": "nM", "IC50": 2510}
{"substance_smiles": "CCOC(=O)c1nn(-c2ccccc2-c2ccccc2)c(=O)c2c(N)scc12", "units_of_measure": "nM", "IC50": 794}
{"substance_smiles": "CCOC(=O)c1nn(-c2ccccc2F)c(=O)c2c(N)scc12", "units_of_measure": "nM", "IC50": 794}
{"substance_smiles": "CCOC(=O)c1nn(-c2ccc(N)cc2)c(=O)c2c(N)scc12", "units_of_measure": "nM", "IC50": 1260}
{"substance_smiles": "CCOC(=O)c1nn(-c2ccc(N(C)C)cc2)c(=O)c2c(N)scc12", "units_of_measure": "nM", "IC50": 3160}
{"substance_smiles": "CCOC(=O)c1ccccc1-n1nc(C(=O)OCC)c2csc(N)c2c1=O", "units_of_measure": "nM", "IC50": 1260}
{"substance_smiles": "CCOC(=O)c1nn(-c2cccc(Br)c2)c(=O)c2c(N)scc12", "units_of_measure": "nM", "IC50": 1000}
{"substance_smiles": "CC(C)NC(=O)c1nn(-c2cccc(Cl)c2)c(=O)c2c(N)scc12", "units_of_measure": "nM", "IC50": 1260}
{"substance_smiles": "CCOC(=O)c1nn(-c2ccc([N+](=O)[O-])cc2)c(=O)c2c(N)scc12", "units_of_measure": "nM", "IC50": 50100}
{"substance_smiles": "CCOC(=O)c1nn(-c2ccc(NC)cc2)c(=O)c2c(N)scc12", "units_of_measure": "nM", "IC50": 3980}
